# measurement.protocol: RPL19A-GFP modulators, yeast TOR pathway, confirmation, cell-based, S. cerevisiae, flow cytometry, cherry picks, mother/daughter gates (AID 2270)
# cond: S. cerevisiae RPL19A-GFP strain, 3 h, at 10 µM, stronger effect = lower value, 100 = same GFP as DMSO wells
Consider the following compounds and their measured GFP response vs DMSO readings.
Supply the numeric figure in %, leaving out any unit text.

- Cc1ccc(NCN2C(=O)C3C4C=CC(C4)C3C2=O)cc1 (stereo not drawn): 96.4
- C/C(CCC12CC3CC(CC(C3)C1)C2)=N\NC(N)=S: 87.9

Lookup: For the compound shown here, COC(=O)Nc1c(-c2ccccc2)nc2ccccn12 , give the reported GFP response vs DMSO.
Found: 99.4

Lookup: Give the measured GFP response vs DMSO of O=[N+]([O-])c1cc(C(F)(F)F)ccc1Sc1ccc2ccccc2n1 .
Found: 95.8

Lookup: What value of measured GFP response vs DMSO is listed for CN(C)c1ccc(/C=C/c2ccc3ccccc3[n+]2C)cc1 ?
Found: 95.3

Lookup: What measured GFP response vs DMSO goes with COc1ccc(C(=O)/C=C/c2ccccc2C(F)(F)F)cc1 ?
Found: 100

Lookup: What value of GFP response vs DMSO has been recorded for this entry: COc1ccc(OC)c(NC(=O)c2cccc3c2C(=O)N(C2CCCCC2)C3)c1
Found: 97.8

Lookup: Any idea what its GFP response vs DMSO is? The compound is CCOC(=O)CNc1c(-c2ccccc2)nc2ccc(Cl)cn12
Found: 96

Lookup: Which measured GFP response vs DMSO value corresponds to O=C(OCC(=O)N1CCN(C(=O)c2ccco2)CC1)c1cc(-c2ccccc2)nc2ccccc12 ?
Found: 76.3

Lookup: Give the measured GFP response vs DMSO of COc1ccc(-c2noc(CCC(=O)Nc3cccc(C)c3)n2)cc1 .
Found: 96.6

Lookup: Looking for the measured GFP response vs DMSO of COC(=O)COc1ccc(S(=O)(=O)N2CCc3ccccc3C2)cc1 , can you help?
Found: 101

Lookup: Tell me the measured GFP response vs DMSO of CC(C(=O)O)n1nc(-c2ccccc2)c2ccccc21 (stereo not drawn) , please.
Found: 97.8

Lookup: Fill blank: measured GFP response vs DMSO of the compound Cc1ccc(-c2noc(CCC(=O)Nc3ccccc3C)n2)cc1 is ____.
Found: 98

Lookup: Please report the recorded GFP response vs DMSO for COc1cc(NC(=O)c2oc3ccccc3c2C)ccc1NC(=O)c1ccco1 .
Found: 98

Lookup: So what's the measured GFP response vs DMSO for this one? CCN(CC)CCCN(C(=O)c1ccc(Br)cc1)c1nc(-c2ccc(OC)cc2)cs1
Found: 96.5

Lookup: Which GFP response vs DMSO value is on record for c1cnc2c(SCc3ccc(-c4nnco4)cc3)cccc2c1 ?
Found: 98.2

Lookup: For Cn1cc(/C=C/c2cc[n+](C)cc2)c2cc(Cl)ccc21 , what is its reported GFP response vs DMSO?
Found: 99.2

Lookup: Give the measured GFP response vs DMSO of O=C1c2cccc3c([N+](=O)[O-])ccc(c23)C(=O)N1CCc1ccccn1 .
Found: 103

Lookup: I am curious: what GFP response vs DMSO value has been reported for O=C(O)c1ccc(N/N=C/C(Br)=C/c2ccccc2)cc1 ?
Found: 98.4

Lookup: Consider the compound COc1ccc(/C=C2/C(=O)ON=C2c2ccccc2)cc1OC and give its measured GFP response vs DMSO.
Found: 102

Lookup: Query: GFP response vs DMSO; subject: CC(C)c1nnc(NC(=O)c2nc(S(=O)(=O)Cc3ccccc3)ncc2Cl)s1
Found: 98.5

Lookup: I would be grateful if you could share the reported GFP response vs DMSO for Oc1c(N=Nc2ccccn2)ccc2ccccc12 .
Found: 94.8

Lookup: What value of GFP response vs DMSO has been reported for the following compound? COc1ccc(N2CCN(C(=O)c3ccc(OCC4CCCO4)cc3)CC2)cc1 (stereo not drawn)
Found: 99.2

###

# measurement.protocol: inhibitors of CD8+ T cell-vesicle binding, pilot screen, LFA-1/ICAM-1 modulator project, MLPCN validation set, flow cytometry (AID 2523);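 note: mean PE anti-B7-1 fluorescence of CD8+ cells relative to row control; 100% = QL9-loaded vesicles with DMSO vehicle in the same plate row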
# cond: 2C mouse CD8+ T cells, at 7 µM, stronger effect = lower value
Cut-off 200% on vesicle binding response: below means Yes, at or above means No.

• O=C1c2ccccc2C(=O)C1c1ccccc1 = No

Lookup: API: query returns whether the compound falls strictly under 200% in vesicle binding response. Query: O=C(CCCN1CCC(O)(c2ccc(Cl)cc2)CC1)c1ccc(F)cc1
Found: Yes

Lookup: Identify whether the compound Nc1cccc(C(=O)O)c1 records vesicle binding response below 200%.
Found: No

Lookup: Quick check: vesicle binding response of CC#C[C@]1(O)CC[C@H]2[C@@H]3CCC4=CC(=O)CCC4=C3[C@@H](c3ccc(N(C)C)cc3)C[C@@]21C under 200%?
Found: Yes

Lookup: Answer whether the compound COc1ccc(CNC(=O)c2cc3c(=O)n4ccccc4nc3n(Cc3cccnc3)c2=N)cc1 has vesicle binding response strictly less than 200%
Found: Yes

Lookup: Find out if reported vesicle binding response for COC1CCCCC1Nc1ccc(C)c(C)c1 (centres undefined) is less than 200%
Found: No

###

Catalogue of GFP response, % of DMSO values
# measurement.protocol: modulators of CIT2-GFP expression in yeast, confirmation, S. cerevisiae, GFP fusion, cherry picks, mother/daughter gates (AID 2274)
# cond: S. cerevisiae CIT2-GFP strain, flow cytometry, 3 h; at 10 µM; stronger effect = higher value
Number only, in %; omit the unit.

Look over these answered cases.
• CC(C)Cn1c(=O)c(C(=O)Nc2ccncc2)c(O)c2ccccc21 = 97.8
• CCCN1CCN(C(=O)c2oc3ccccc3c2NC(=O)COc2ccc(OC)cc2)CC1 = 105
• CCCCOC(=O)C1CCC[C@@H](C)N1 (stereo partly specified) = 100
• COc1cc(/C=C2\C(=O)ON=C2c2ccccc2)cc(Br)c1O = 94.4
• COc1cccc(/C=N\NC(=O)c2cc(OCC(F)(F)F)ccc2OCC(F)(F)F)c1 = 99.7
• CC(Oc1ccc(Cl)cc1)C(=O)NNC(=S)NC(=O)c1ccco1 (stereo unspecified) = 106
• O=[N+]([O-])c1cc(CN2CCN(c3ccccc3)CC2)c(O)c2ncccc12 = 97.3
• Cc1ccc2nc(Cl)c3nnnn3c2c1 = 82.8
• Cc1cc(N2CCC(C)CC2)n2nc(C)c(-c3ccccc3)c2n1 = 101
• O=C(COC(=O)/C=C/c1cccs1)Nc1nc(-c2ccccc2)cs1 = 99.7

For the next question, use this molecule.
Lookup: Recorded GFP response, % of DMSO for CCCCNC(=O)c1cc2c(=O)n3cccc(C)c3nc2n(Cc2ccncc2)c1=N , please?
Found: 104

###

# target.desc: Beta-adrenergic receptor kinase 1 (Homo sapiens)
# measurement.protocol: GRK2 binders displacing RNA aptamer, biochemical, validation, human GRK2, bead flow cytometry (AID 488806)
# cond: bead-bound GRK2, FAM-aptamer displacement, at 10 µM, stronger effect = higher value
Overview of reported aptamer binding inhibition across a group of molecules:
Give the quantity in %, number only.

Answered examples (10):
• O=S(=O)(NCCCCCNS(=O)(=O)c1ccccc1)c1ccccc1 = -3
• COc1ccc(Cc2nc(-c3ccc(Br)cc3)no2)cc1 = -1
• COc1cc(OC)cc(C(=O)N[C@@H](CCSC)c2nc3ccccc3[nH]2)c1 = 1
• O=C(O)CCCCCCCC(=O)O = 4
• Cc1ccc2c(c1)C(O)(CC(=O)/C=C/C=C/c1ccccc1)C(=O)N2 (configuration not stated) = 2
• CC1(C)CC(=O)c2cc(O)ccc2O1 = 3
• Cn1cc(CN(CCO)Cc2cccs2)c(-c2cccc(Cl)c2)n1 = 3
• O=c1[nH]c(=O)n([C@H]2C[C@H](O)[C@@H](CO)O2)cc1F = 9
• CC(C)(C)c1ccc(C(O)CCCN2CCC(C(O)(c3ccccc3)c3ccccc3)CC2)cc1 (configuration not stated) = -1
• C[N+]12CCC(CC1)C(OC(=O)C(O)(c1ccccc1)c1ccccc1)C2 (configuration not stated) = -2

Lookup: # get_value(readout= aptamer binding inhibition, system= Beta-adrenergic receptor kinase 1 (Homo sapiens)) for CC1(C)CC(=O)C(C(=O)CCCCC(=O)C2C(=O)CC(C)(C)CC2=O)C(=O)C1
Found: -1

Lookup: State its aptamer binding inhibition on Beta-adrenergic receptor kinase 1 (Homo sapiens): CC(=O)Nc1cc(O)cc(O)c1
Found: -2

Lookup: Notebook entry, Beta-adrenergic receptor kinase 1 (Homo sapiens) assay: aptamer binding inhibition of CCOC(=O)c1cnc2ccccc2c1NCCO = ?
Found: 0

###

# measurement.protocol: modulators of CIT2-GFP expression in yeast, confirmation, S. cerevisiae, GFP fusion, cherry picks, mother/daughter gates (AID 2274)
# cond: S. cerevisiae CIT2-GFP strain, flow cytometry, 3 h; at 10 µM; stronger effect = higher value
measure.name: GFP response, % of DMSO (%)
Provide the reading as a plain figure in %.

// known answers, use as guide
• O=C1Oc2ccccc2C(=O)/C1=C/c1ccccc1O = 79.8
• COc1ccccc1NC(=O)Cn1nnc(-c2ccccc2NC(=O)c2ccco2)n1 = 99.1
• O=C1C2C3C=CC(C4CC34)C2C(=O)N1/N=C/c1ccc([N+](=O)[O-])o1 (stereo not given) = 107

Lookup: Can you look up the measured GFP response, % of DMSO of Cc1ccc(C(=O)OCC(=O)Nc2ccccc2Sc2ccccc2)cc1C for me?
Found: 103

Lookup: Request the reported GFP response, % of DMSO associated with O=c1oc2cc(Oc3c([N+](=O)[O-])cc(C(F)(F)F)cc3[N+](=O)[O-])ccc2c2c1CCCC2
Found: 100

Lookup: Using the record for Cc1ccc(-c2noc(CCC(=O)Nc3ccccc3C)n2)cc1 , report its GFP response, % of DMSO.
Found: 100

Lookup: Any idea what GFP response, % of DMSO was measured for O=C(NCc1ccccn1)c1cc(-c2ccc(Cl)cc2)oc1C(F)(F)F ?
Found: 102

Lookup: Quick one: GFP response, % of DMSO for COc1ccc(OC)c(C2CC(c3c(-c4ccccc4)c4cc(Cl)ccc4[nH]c3=O)=NN2S(C)(=O)=O)c1 (stereo not given) ?
Found: 97.8

Lookup: I'd like to know its GFP response, % of DMSO. The compound in question is c1ccc(-c2n[nH]c3ccccc23)cc1
Found: 96.9

Lookup: # GFP response, % of DMSO lookup, item O=C(Nc1nc(-c2ccccc2)cs1)c1cccc([N+](=O)[O-])c1
Found: 98.8
